# TEST TARGET: Acetylcholinesterase (Electrophorus electricus) (UniProt O42275)
# Sequence (O42275 24-633 limits assumed): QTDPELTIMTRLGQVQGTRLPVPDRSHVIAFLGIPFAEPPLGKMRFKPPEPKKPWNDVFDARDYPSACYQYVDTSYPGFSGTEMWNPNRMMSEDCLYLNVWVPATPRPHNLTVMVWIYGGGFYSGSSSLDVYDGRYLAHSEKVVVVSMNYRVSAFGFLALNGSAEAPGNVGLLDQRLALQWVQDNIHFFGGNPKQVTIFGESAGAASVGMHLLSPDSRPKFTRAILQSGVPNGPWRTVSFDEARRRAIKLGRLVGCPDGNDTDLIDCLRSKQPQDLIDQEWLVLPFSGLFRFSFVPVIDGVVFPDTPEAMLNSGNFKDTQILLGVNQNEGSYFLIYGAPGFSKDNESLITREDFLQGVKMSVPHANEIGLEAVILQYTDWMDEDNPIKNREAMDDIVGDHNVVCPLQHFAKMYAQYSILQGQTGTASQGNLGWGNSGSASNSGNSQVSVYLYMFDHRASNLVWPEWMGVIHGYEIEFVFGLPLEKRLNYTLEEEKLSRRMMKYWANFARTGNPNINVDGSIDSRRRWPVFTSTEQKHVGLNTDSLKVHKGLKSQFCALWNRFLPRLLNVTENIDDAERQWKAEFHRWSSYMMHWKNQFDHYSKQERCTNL
# TEST: Inhibition of electric eel AChE at 20 uM using acetylthiocholine iodide as substrate preincubated with enzyme for 20 mins followed by substrate addition by Ellman's method relative to control
The source made the active and inactive calls. No rule for the calls is given here.
RECORDED METRIC: inhibition

>>> print(df.to_string())
                                   compound  endpoint_result
0  COc1ccc(-c2nn(-c3ccccc3Cl)c3c2C(c2ccc(Br)c(C)c2)CS(=O)(=O)O3)cc1 (centres undefined)         inactive
1  CC(=O)C1=C(C)OS(=O)(=O)CC1c1ccc([N+](=O)[O-])cc1 (centres undefined)         inactive
2  Cc1nn(-c2ccccc2)c2c1C(c1ccc(C#N)cc1)CS(=O)(=O)O2 (centres undefined)         inactive
3  Cc1nn(-c2ccccc2)c2c1C(c1cc3ccccc3s1)CS(=O)(=O)O2 (centres undefined)              14%
4  CCOC(=O)c1ccc(C2CS(=O)(=O)Oc3c2c(C)nn3-c2ccccc2)cc1 (centres undefined)         inactive
5  CC(C)C(=O)C1=C(C(C)C)OS(=O)(=O)CC1c1ccc([N+](=O)[O-])cc1 (centres undefined)         inactive
6  CC1(C)CC(=O)C2=C(C1)OS(=O)(=O)CC2c1ccc([N+](=O)[O-])cc1 (centres undefined)         inactive
7  Cc1nn(-c2ccccc2)c2c1C(/C=C/c1ccc(C(C)(C)C)cc1)CS(=O)(=O)O2 (centres undefined)              11%
8  O=S1(=O)CC(c2cccc(C(F)(F)F)c2)c2c(C3CC3)nn(-c3cccc(F)c3)c2O1 (centres undefined)         inactive
